tested on: STS26T; assay: % inhibition of CellTiter-Glo viability at highest tested concentration (72 h), relative to DMSO and benzethonium chloride controls; higher = more inhibition
measured parameter: % inhibition

molecule	% inhibition
Cc1ccc(-c2cc(C(F)(F)F)nn2-c2ccc(S(N)(=O)=O)cc2)cc1 [Celecoxib] (max concentration tested 10000 nM)	-2%
CC[C@H](CO)Nc1nc(NCc2ccccc2)c2ncn(C(C)C)c2n1 [Seliciclib] (max concentration tested 10000 nM)	23.2%
C[C@]12CC[C@@H]3c4ccc(O)cc4C[C@@H](CCCCCCCCC[S+]([O-])CCCC(F)(F)C(F)(F)F)[C@H]3[C@@H]1CC[C@@H]2O (stereo partly specified) [Fulvestrant] (max concentration tested 1000 nM)	4.69%

Dear colleague, could you please provide % inhibition for the molecules listed below?
1. Cc1cc(Nc2nc(N[C@@H](C)c3ncc(F)cn3)ncc2Cl)[nH]n1 [AZD1480] (max concentration tested 1000 nM)
2. CC1(C)CNc2cc(NC(=O)c3cccnc3NCc3ccncc3)ccc21 [Motesanib] (max concentration tested 10000 nM)
3. CN(C)CCOc1ccc(/C(=C(/CCCl)c2ccccc2)c2ccccc2)cc1 [Toremifene] (max concentration tested 10000 nM)

1: 18.1%; 2: 4.89%; 3: 27.1%

* * *

Give measured relative IC50 for each item. Keep answers brief.
tested on: STS26T; assay: relative IC50 (inflection point of fitted dose-response curve, CellTiter-Glo viability, 72 h; top asymptote may be below 50% inhibition); higher = less potent

Worked cases, answers included:
> print(dat)
                                   compound  assay.target  observed
1      O=NN(CCCl)C(=O)NC1CCCCC1 [Lomustine]        STS26T   > 10 µM
2                    NC(=O)NO [Hydroxyurea]        STS26T  > 100 µM
3  CC(C)(C#N)c1cc(Cn2cncn2)cc(C(C)(C)C#N)c1 [Anastrozole]        STS26T   > 10 µM
4  CS(=O)(=O)c1ccc(C2=C(c3ccccc3)C(=O)OC2)cc1 [Rofecoxib]        STS26T   > 10 µM
5  Nc1nc(OCc2cc(Br)cs2)c2[nH]cnc2n1 [Lomeguatrib]        STS26T   > 10 µM
6  Cc1ccc(C(=O)N(CCCN)[C@@H](c2oc3cc(Cl)ccc3c(=O)c2Cc2ccccc2)C(C)C)cc1        STS26T  > 0.1 µM

Now turn to the next compound.
Give the reported relative IC50 for NC(=O)c1ccc(I)c([N+](=O)[O-])c1 [Iniparib] (system: STS26T). > 10 µM

* * *

Give measured drug sensitivity score for each item. Keep answers brief.
system: YST-1; assay: drug sensitivity score (DSS, CellTiter-Glo viability, 72 h) (DSS (dimensionless)); higher = more sensitive; extreme values may be limits of the assay

Worked cases, answers included:
> print(dat)
                                   compound  observed
1  CCn1nnc2c(N3CCOCC3)nc(-c3ccc(NC(=O)Nc4ccc(C(=O)N5CCN(C)CC5)cc4)cc3)nc21 [PKI-402] (max concentration tested 2500 nM)      17.3
2  Cn1c(Nc2ccc(C(F)(F)F)cc2)nc2cc(Oc3ccnc(-c4ncc(C(F)(F)F)[nH]4)c3)ccc21 [RAF265] (max concentration tested 1000 nM)      2.73
3  C[C@H]1C=C2C(=O)O[C@H]3CC[C@@H](C1)[C@@]23O [Galiellalactone] (max concentration tested 25000 nM)      2.78

Dear colleague, could you please provide drug sensitivity score for the compounds listed below?
1. C[C@@H]1CN(CC(=O)Nc2ccc3c(c2)Cc2cccc(-c4cc(=O)cc(N5CCOCC5)o4)c2S3)C[C@H](C)O1 (max concentration tested 25000 nM)
2. C[C@@H](C(=O)O)c1ccc(-c2ccccc2)c(F)c1 [Tarenflurbil] (max concentration tested 10000 nM)
3. FC(F)c1nc2ccccc2n1-c1nc(N2CCOCC2)nc(N2CCOCC2)n1 [ZSTK474] (max concentration tested 10000 nM)

1: 1.74; 2: 0; 3: 15.1

* * *

tested on: HS-PSS; assay: drug sensitivity score (DSS, CellTox-Green cytotoxicity, 72 h) (DSS (dimensionless)); higher = more cytotoxic; extreme values may be limits of the assay
Give measured drug sensitivity score for each item. Keep answers brief.
Give bare numbers.

Worked cases, answers included:
molecule	assay target	observed
NC(=O)c1cccc2cn(-c3ccc(C4CCCNC4)cc3)nc12 (stereo not given) [Niraparib] (max concentration tested 10000 nM)	HS-PSS	0.21
C[C@]12O[C@H](C[C@]1(O)CO)n1c3ccccc3c3c4c(c5c6ccccc6n2c5c31)CNC4=O [Lestaurtinib] (max concentration tested 1000 nM)	HS-PSS	0
CNC(=O)c1ccc(-c2cnc3ncc(Cc4ccc5ncccc5c4)n3n2)cc1F [NVP-INC280] (max concentration tested 1000 nM)	HS-PSS	0
CNC(=O)c1ccc(N2C(=S)N(c3ccc(C#N)c(C(F)(F)F)c3)C(=O)C23CCC3)cc1F [RD162] (max concentration tested 10000 nM)	HS-PSS	0

Dear colleague, could you please provide drug sensitivity score for the molecules listed below?
1. COc1cc(F)c(F)c(Nc2ccc(I)cc2F)c1NS(=O)(=O)C1(C[C@H](O)CO)CC1 [Refametinib] (max concentration tested 10000 nM)
2. Cc1cc2c(C(=O)NC[C@H](C)c3ccccc3)c(O)c(O)cc2c(O)c1-c1c(C)cc2c(C(=O)NC[C@H](C)c3ccccc3)c(O)c(O)cc2c1O [Sabutoclax] (max concentration tested 25000 nM)
3. Cn1c(=O)n(-c2ccc(C(C)(C)C#N)cc2)c2c3cc(-c4cnc5ccccc5c4)ccc3ncc21 [Dactolisib] (max concentration tested 1000 nM)
4. CCCC(CCC)C(=O)O [Valproic acid] (max concentration tested 1000000 nM)
5. CCCCc1nc2cc(/C=C/C(=O)NO)ccc2n1CCN(CC)CC [Pracinostat] (max concentration tested 10000 nM)
6. Nc1cccc2c1C(=O)N(C1CCC(=O)NC1=O)C2=O (stereo not given) [Pomalidomide] (max concentration tested 10000 nM)
7. COc1cc(Nc2c(C#N)cnc3cc(OCCCN4CCN(C)CC4)c(OC)cc23)c(Cl)cc1Cl [Bosutinib] (max concentration tested 10000 nM)
8. O=P1(N(CCCl)CCCl)NCCCO1 (stereo not given) [Cyclophosphamide] (max concentration tested 40000 nM)

1: 0.98; 2: 0; 3: 0.12; 4: 0; 5: 6.63; 6: 0; 7: 5.37; 8: 0

* * *

Give measured relative IC50 for each item. Keep answers brief.
test system: S1507-2; test: relative IC50 (inflection point of fitted dose-response curve, CellTox-Green cytotoxicity, 72 h; top asymptote may be below 50%); higher = less potent

Dear colleague, could you please provide relative IC50 for the molecules listed below?
1. O=C(c1ccc(C(=O)N2CCC(N3CCCC3)CC2)c(Nc2ccccc2)c1)N1CCC(N2CCCC2)CC1
2. N#Cc1ccc(COC[C@H]2O[C@@H](n3c(NCc4ccc(Cl)c(Cl)c4)nc4c(N)ncnc43)[C@H](O)[C@@H]2O)cc1

> 30 µM
> 10 µM

Query: relative IC50; subject: Nc1nccc(-c2c(-c3ccc(F)cc3)ncn2C2CCCCC2)n1 > 10 µM

* * *

system: HSC1 (primary human Schwann cells); assay: % inhibition of CellTiter-Glo viability at highest tested concentration (72 h), relative to DMSO and benzethonium chloride controls; higher = more inhibition
Give measured % inhibition for each item. Keep answers brief.
Answers are plain numbers, in %.

Dear colleague, could you please provide % inhibition for the compounds listed below?
1. O=C(Nc1cccnc1)N1CCC(Cc2cccc(Oc3ccc(C(F)(F)F)cn3)c2)CC1 [PF-3845] (max concentration tested 10000 nM)
2. CC1(C)CCC(CN2CCN(c3ccc(C(=O)NS(=O)(=O)c4ccc(NCC5CCOCC5)c([N+](=O)[O-])c4)c(Oc4cnc5[nH]ccc5c4)c3)CC2)=C(c2ccc(Cl)cc2)C1 [ABT-199] (max concentration tested 10000 nM)
3. O=C(Nc1ccncc1)C(=O)c1cn(Cc2ccc(Cl)cc2)c2ccccc12 [Indibulin] (max concentration tested 10000 nM)
4. C#Cc1cccc(Nc2ncnc3cc(OCCOC)c(OCCOC)cc23)c1 [Erlotinib] (max concentration tested 10000 nM)
5. C[C@@H](C(=O)O)c1ccc(-c2ccccc2)c(F)c1 [Tarenflurbil] (max concentration tested 10000 nM)

1. 33.5
2. 14.4
3. 67.6
4. 73.1
5. 1.66

Dear colleague, could you please provide % inhibition for the compounds listed below?
1. C[C@H]1C[C@@H]2[C@H]([C@@H](O)C[C@@]3(C)[C@H]2CC[C@]3(O)C(=O)CO)[C@@]2(C)C=CC(=O)C=C12 [Methylprednisolone] (max concentration tested 10000 nM)
2. COc1cc(CCc2cc(NC(=O)c3ccc(N4CC(C)NC(C)C4)cc3)n[nH]2)cc(OC)c1 (configuration not stated) [AZD4547] (max concentration tested 1000 nM)
3. NC1(c2ccc(-c3nc4ccn5c(=O)[nH]nc5c4cc3-c3ccccc3)cc2)CCC1 [MK-2206] (max concentration tested 1000 nM)
4. CNC(=O)c1ccc(N2C(=S)N(c3cnc(C#N)c(C(F)(F)F)c3)C(=O)C23CCC3)cc1F [ARN 509] (max concentration tested 10000 nM)
5. COc1cc2c(NC3CCN(C(C)C)CC3)nc(N3CCC(F)(F)CC3)nc2cc1OCCCN1CCCC1 [UNC0642] (max concentration tested 10000 nM)
6. Cn1cc(C2=C(c3cn(C4CCN(Cc5ccccn5)CC4)c4ccccc34)C(=O)NC2=O)c2ccccc21 [Enzastaurin] (max concentration tested 10000 nM)
7. CC(C)(C)c1cnc(CSc2cnc(NC(=O)C3CCNCC3)s2)o1 [SNS-032] (max concentration tested 10000 nM)
8. CNC(=O)c1ccccc1Sc1ccc2c(/C=C/c3ccccn3)n[nH]c2c1 [Axitinib] (max concentration tested 10000 nM)

[7.99, 22.4, 11, -4.96, 7.89, 21.8, 79.4, 66.9]
